All figures here come from patent US11000515B2.

molecular target: KRas G12C/Q61H double mutant (Homo sapiens (Human), UniProt P01116, G12C/Q61H); experiment: Ras GTP binding domain inhibition assay (labeled GTP); details: compound at 20 μM
Sequence (P01116-2 other isoform, or with tags, fused parts or gaps G12C/Q61H): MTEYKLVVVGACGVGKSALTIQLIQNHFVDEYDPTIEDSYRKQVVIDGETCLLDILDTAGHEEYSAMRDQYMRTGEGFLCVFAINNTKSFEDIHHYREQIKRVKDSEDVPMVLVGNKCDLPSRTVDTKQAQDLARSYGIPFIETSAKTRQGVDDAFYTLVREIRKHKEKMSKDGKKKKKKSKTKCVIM
measured property: inhibition at 20 µM

Q: Read off the recorded inhibition at 20 µM for CN(C)COc1ccc(-c2csc3c(O)nc(-c4ccccn4)nc23)cn1
Result: 51 to 75%

Q: Write down inhibition at 20 µM measured for item O=C(CCC1N=NN=N1)Nc1nc(-c2ccccn2)nc2sccc12
Result: 51 to 75%

Q: Indicate the recorded inhibition at 20 µM value for this molecule: O=C(NCCc1cncs1)c1csc2nc(-c3ccccn3)nc(N3CCOCC3)c12
Result: 1 to 25%

Q: Specify inhibition at 20 µM for Oc1nc(-c2ccccn2)nc2ccsc12 and stop.
Result: 25 to 50%
